# System: ear swelling induced by arachidonic acid
# test details: topical anti-inflammatory activity test (arachidonic acid-induced ear swelling)
# Type: in vivo, male ICR mice
# stated conditions: Mus musculus, 30 μg/ear, 1 hour before 1 mg arachidonic acid, read-out: Ratio of inhibition of ear swelling induced by arachidonic acid
Decision: inhibition in vivo at 30 µg/ear compared against 30%; not below it gives satisfied, below it gives not satisfied.

Ask: Entry CCCCOc1ccc(O)c(C(=O)C=Cc2ccc(O)c(O)c2)c1 [Example 9] : is its inhibition in vivo at 30 µg/ear no less than 30%?
Result: satisfied

Ask: Is reported inhibition in vivo at 30 µg/ear greater than or equal to 30% here: COc1ccc(C)cc1C(=O)C=Cc1ccc(O)c(O)c1 [Example 11]
Result: satisfied

Ask: Quick check: does Cc1ccc(O)c(C(=O)C=Cc2ccc(O)c(O)c2)c1 [Example 5] have inhibition in vivo at 30 µg/ear greater than or equal to 30%?
Result: satisfied

Ask: Hello, I need to know if CCOc1ccc(OC)c(C(=O)C=Cc2ccc(O)c(O)c2)c1 [Example 13] has measured inhibition in vivo at 30 µg/ear not below 30%. Thanks!
Result: not satisfied

Ask: Decide: is the reported value of inhibition in vivo at 30 µg/ear for CC(C)Oc1ccc(O)c(C(=O)C=Cc2ccc(O)c(O)c2)c1 [Example 8] equal to or greater than 30%?
Result: satisfied

Ask: Reported inhibition in vivo at 30 µg/ear at or above 30%? CCOc1ccc(OC)cc1C(=O)C=Cc1ccc(O)c(O)c1 [Example 15]
Result: not satisfied

Ask: Check if inhibition in vivo at 30 µg/ear >= 30% (inclusive). Item: CN(C)c1ccc(C(=O)C=Cc2ccc(O)c(O)c2)cc1 [Example 24]
Result: not satisfied

Ask: Decide: is the reported value of inhibition in vivo at 30 µg/ear for CC(C)c1ccc(O)c(C(=O)C=Cc2ccc(O)c(O)c2)c1 [Example 7] equal to or greater than 30%?
Result: not satisfied

Ask: Identify whether the reported inhibition in vivo at 30 µg/ear of the following molecule is 30% or greater: COc1ccc(O)c(C(=O)C=Cc2ccc(O)c(O)c2)c1 [Example 6]
Result: satisfied
